# ASSAY: Generation of bioluminescence from luciferin borates upon treatment with hydrogen peroxide (luciferase light reaction)
# Format: biochemical
# STUDY_CONDITIONS: H2O2 15 μM, phosphate buffer pH 7.41, 70 minutes
// reported average relative light units (bioluminescence) per item

Known results for compounds:
> print(dat)
                                   compound    test.result
1  O=C(O)C1CSC(c2nc3ccc(OCc4c(B(O)O)ccc5ccccc45)cc3s2)=N1 (stereo not shown)     19,332 RLU
2  CC(Oc1ccc2nc(C3=NC(C(=O)O)CS3)sc2c1)c1ccc(B(O)O)cc1 (stereo not shown)     14,725 RLU
3  O=C(O)C1CSC(c2nc3ccc(OCc4ccc(B(O)O)cc4)cc3s2)=N1 (stereo not shown)  1,709,044 RLU

Now look at this entry.
Supply recorded average relative light units (bioluminescence) for O=C(O)C1CSC(c2nc3ccc(OCc4ccc(B(O)O)c5ccccc45)cc3s2)=N1 (stereo not shown) here.
1,282,281 RLU
